Hi there, I'd appreciate the recorded IC50 for every entry that follows.
- SYSTEM: human NaV subtype, like NaV 1.7 (Homo sapiens, UniProt Q15858)
- Sequence (Q15858 whole entry): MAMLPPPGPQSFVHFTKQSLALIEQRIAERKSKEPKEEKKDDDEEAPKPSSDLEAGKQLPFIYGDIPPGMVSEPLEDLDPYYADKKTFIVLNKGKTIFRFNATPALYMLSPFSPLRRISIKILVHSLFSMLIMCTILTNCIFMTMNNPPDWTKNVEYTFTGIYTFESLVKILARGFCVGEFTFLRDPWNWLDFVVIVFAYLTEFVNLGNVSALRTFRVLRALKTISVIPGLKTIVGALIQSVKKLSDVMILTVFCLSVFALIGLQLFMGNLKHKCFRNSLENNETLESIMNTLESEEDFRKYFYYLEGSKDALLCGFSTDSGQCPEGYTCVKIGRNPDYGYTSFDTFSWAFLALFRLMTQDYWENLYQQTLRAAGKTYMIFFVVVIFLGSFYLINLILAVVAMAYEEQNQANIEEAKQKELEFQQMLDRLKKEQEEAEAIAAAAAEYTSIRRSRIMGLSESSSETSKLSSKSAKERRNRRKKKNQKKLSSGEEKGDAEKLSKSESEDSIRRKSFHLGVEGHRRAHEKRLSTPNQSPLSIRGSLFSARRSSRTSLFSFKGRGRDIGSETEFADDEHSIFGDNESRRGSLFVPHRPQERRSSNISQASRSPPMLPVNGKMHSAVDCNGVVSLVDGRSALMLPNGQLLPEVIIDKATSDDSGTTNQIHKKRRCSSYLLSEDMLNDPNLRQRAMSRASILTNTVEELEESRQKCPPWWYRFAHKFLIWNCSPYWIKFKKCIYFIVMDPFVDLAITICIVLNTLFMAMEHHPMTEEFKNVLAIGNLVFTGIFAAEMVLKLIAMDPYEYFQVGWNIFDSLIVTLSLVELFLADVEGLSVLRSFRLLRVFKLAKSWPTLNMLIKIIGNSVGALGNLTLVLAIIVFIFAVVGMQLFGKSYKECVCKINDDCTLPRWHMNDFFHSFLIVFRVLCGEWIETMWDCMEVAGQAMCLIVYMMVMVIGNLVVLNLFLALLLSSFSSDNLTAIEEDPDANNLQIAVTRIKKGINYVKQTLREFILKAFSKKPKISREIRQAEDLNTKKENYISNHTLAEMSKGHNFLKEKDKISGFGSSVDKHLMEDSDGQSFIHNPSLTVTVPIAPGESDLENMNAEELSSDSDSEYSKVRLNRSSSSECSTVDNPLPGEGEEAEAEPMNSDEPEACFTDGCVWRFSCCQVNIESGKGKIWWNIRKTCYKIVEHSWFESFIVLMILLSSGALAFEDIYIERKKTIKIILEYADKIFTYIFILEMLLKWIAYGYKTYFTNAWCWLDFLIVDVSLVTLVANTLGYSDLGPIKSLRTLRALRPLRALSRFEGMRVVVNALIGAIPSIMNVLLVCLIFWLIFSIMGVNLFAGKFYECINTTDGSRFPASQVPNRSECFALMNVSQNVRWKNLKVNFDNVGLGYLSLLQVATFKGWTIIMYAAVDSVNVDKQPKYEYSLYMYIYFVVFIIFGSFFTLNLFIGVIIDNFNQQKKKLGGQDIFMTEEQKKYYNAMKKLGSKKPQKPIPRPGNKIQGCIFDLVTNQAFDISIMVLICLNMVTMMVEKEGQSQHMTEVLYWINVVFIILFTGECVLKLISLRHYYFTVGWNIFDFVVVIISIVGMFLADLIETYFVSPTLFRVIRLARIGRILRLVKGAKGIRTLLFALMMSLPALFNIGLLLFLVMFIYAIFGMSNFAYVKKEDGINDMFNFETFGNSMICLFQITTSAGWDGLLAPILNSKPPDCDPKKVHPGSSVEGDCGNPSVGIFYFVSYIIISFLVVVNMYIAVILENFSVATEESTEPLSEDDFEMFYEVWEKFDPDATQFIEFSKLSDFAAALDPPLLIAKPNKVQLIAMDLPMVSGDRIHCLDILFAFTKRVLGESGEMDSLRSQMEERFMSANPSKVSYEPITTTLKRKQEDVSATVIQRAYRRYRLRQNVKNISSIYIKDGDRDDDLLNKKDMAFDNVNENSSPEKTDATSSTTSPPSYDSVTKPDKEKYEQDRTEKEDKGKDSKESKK
- ASSAY EXPLANATION: E-VIPR optical membrane potential assay with electrical stimulation
- Type: cell-based
- APPLIED CONDITIONS: active against one or more sodium channels; assay and NaV subtype not specified for Table 3; read-out: IC50 Binned Activity Data

The recorded IC50 for entry COCC1CN(c2ncc(F)cn2)CC2(CCN(C(=O)c3ccc(OC(C)C)c(C)c3)CC2)O1 (stereo not shown) equals < 2000 nM

Sure, the documented IC50 for Cc1cc(C(=O)N2CCC3(CC2)CN(CC(C)C)CC(c2ccccc2)O3)ccc1OC(C)C (stereo not shown) is < 2000 nM

Reported IC50 of COCC1CN(c2ncccc2OC)CC2(CCN(C(=O)c3ccc(OC(C)C)c(C)c3)CC2)O1 (stereo not shown) : < 2000 nM

Value of measured IC50 for the entry CCOCC1CN(c2ncccn2)CC2(CCN(C(=O)c3ccc(OC(C)C)c(C)c3)CC2)O1 (stereo not shown) : < 2000 nM

compound CC(C)Oc1ccc(C(=O)N2CCC3(CC2)CN(CC(F)F)CC(c2ccnn2C)O3)cc1F (stereo not shown) , IC50 observed: > 5000 nM

COCC1CN(C2CCN(C(C)=O)CC2)CC2(CCN(C(=O)c3ccc(OC(C)C)c(C)c3)CC2)O1 (stereo not shown) yielded IC50 of > 5000 nM

IC50 measured on CC(C)(O)c1ccc(C(=O)N2CCC3(CC2)CN(CC(F)(F)F)CC(c2ccccc2)O3)cc1F (stereo not shown) = < 2000 nM

Lab book: IC50 of Cc1cc(C(=O)N2CCC3(CC2)CN(CC#N)CC(c2ccccc2)O3)ccc1OC(C)C (stereo not shown) noted as < 2000 nM

Lab book: IC50 of Cc1cc(C(=O)N2CCC3(CC2)CN(CC(F)F)CC(c2nccn2C)O3)ccc1OC(C)C (stereo not shown) noted as > 5000 nM

// IC50 lookup, compound = Cc1cc(C(=O)N2CCC3(CC2)CN(CC(F)F)CC(c2ccc(F)cc2)O3)ccc1S(C)(=O)=O (stereo not shown) , result: > 5000 nM

Record CC(C)(O)c1ccc(C(=O)N2CCC3(CC2)CN(CC(F)F)CC(c2ccccc2)O3)cc1 (stereo not shown) . Reported IC50: 2000 to 5000 nM

Per the records, this compound ( Cc1cc(C(=O)N2CCC3(CC2)CN(CC(F)F)CC(c2ncc(C(C)C)o2)O3)ccc1OC(C)C (stereo not shown) ) has IC50 equal to < 2000 nM

Just so you know, measured IC50 for CCCCN1CC(COC)OC2(CCN(C(=O)c3ccc(OC(C)C)c(C)c3)CC2)C1 (stereo not shown) came out at < 2000 nM

The recorded IC50 for entry CCC1CN(c2ncccn2)CC2(CCN(C(=O)c3ccc(C4=CCCC4)c(F)c3)CC2)O1 (stereo not shown) equals > 5000 nM

Summary for this compound, COCC1CN(c2ncccn2)CC2(CCN(C(=O)c3ccc(OCC(C)(C)O)c(C)c3)CC2)O1 (stereo not shown) : IC50 is 2000 to 5000 nM

// IC50 value for COCC1CN(c2cccc(C#N)c2)CC2(CCN(C(=O)c3ccc(OC(C)C)c(C)c3)CC2)O1 (stereo not shown) : < 2000 nM

Measured IC50 of Cc1cc(C(=O)N2CCC3(CC2)CN(C(C)C)CC(c2ccccc2)O3)ccc1OC(C)C (stereo not shown) : < 2000 nM

Entry Cc1cc(S(C)(=O)=O)ccc1C(=O)N1CCC2(CC1)CN(CC(F)(F)F)CC(c1ccccc1)O2 (stereo not shown) , IC50 reported as > 5000 nM

Reported IC50 ( CCC1CN(c2ccccn2)CC2(CCN(C(=O)c3ccc(C4(O)CCCC4)cc3)CC2)O1 (stereo not shown) ) = < 2000 nM

Entry CC#CCN1CC(CC)OC2(CCN(C(=O)c3ccc(OC(C)C)c(C#N)c3)CC2)C1 (stereo not shown) — recorded IC50 = > 5000 nM

The compound COC(=O)c1ccnc(N2CC(CO)OC3(CCN(C(=O)c4ccc(OC(C)C)c(C)c4)CC3)C2)n1 (stereo not shown) showed IC50 equal to > 5000 nM

So, Cc1cc(C(=O)N2CCC3(CC2)CN(C(=O)C(C)C)CC(c2ccccc2)O3)ccc1OC(C)C (stereo not shown) ? Its IC50 was 2000 to 5000 nM

Record CC(C)Oc1ccc(C(=O)N2CCC3(CC2)CN(CC(F)F)CC(c2ccc(F)cc2)O3)cc1Cl (stereo not shown) , field IC50: < 2000 nM

Form field IC50, entry COCC1CN(c2ncccn2)CC2(CCN(C(=O)c3ccc(C(C)(C)O)cc3)CC2)O1 (stereo not shown) : > 5000 nM

IC50 measured on Cc1cc(C(=O)N2CCC3(CC2)CN(CC(F)F)CC(c2ccc(F)cc2)O3)ccc1OCC(C)(C)O (stereo not shown) = < 2000 nM

Field IC50 (entry CCN1CC(c2ncc(C)s2)OC2(CCN(C(=O)c3ccc(OC(C)C)c(OC)c3)CC2)C1 (stereo not shown) ) reads 2000 to 5000 nM

Short answer for CC(C)Oc1ccc(C(=O)N2CCC3(CC2)CN(CC(F)(F)F)CC(c2ccccc2)O3)cc1F (stereo not shown) : IC50 was < 2000 nM

// field: IC50; key: CC(C)CS(=O)(=O)c1ccc(C(=O)N2CCC3(CC2)CN(CC(F)(F)F)CC(c2ccccc2)O3)cc1 (stereo not shown) ; value = < 2000 nM

Value of IC50 reported for the compound Cc1cc(C(=O)N2CCC3(CC2)CN(CC(F)F)CC(c2cc[nH]n2)O3)ccc1OC(C)C (stereo not shown) is < 2000 nM

So for COc1cccc(C(=O)N2CCC3(CC2)CN(CC(F)F)CC(c2ccccc2)O3)n1 (stereo not shown) , the logged IC50 turned out to be 2000 to 5000 nM

The compound listed as Cc1cc(C(=O)N2CCC3(CC2)CN(Cc2ccccc2)CC(C(C)(C)O)O3)ccc1OC(C)C (stereo not shown) shows IC50 equal to > 5000 nM

====

So I've got a bunch of compounds here, and I need their IC50 values.
- SYSTEM: UniProtKB Q15858
- ASSAY EXPLANATION: E-VIPR optical membrane potential assay with electrical stimulation
- Type: cell-based
- APPLIED CONDITIONS: active against one or more sodium channels; assay and NaV subtype not specified for Table 3; read-out: IC50 Binned Activity Data

Entry CC(C)Oc1ccc(C(=O)N2CCC3(CC2)CN(CC(F)F)CC(c2ccc(F)cc2)O3)cc1CO (centres unmarked) — recorded IC50 = 2000 to 5000 nM

Input Cc1cc(C(=O)N2CCC3(CC2)CN(CC(F)F)CC(c2ccn(C)n2)O3)ccc1OC(C)C (centres unmarked) . Output IC50: < 2000 nM

Please fill in: IC50 reported for CC(C)Oc1ccc(C(=O)N2CCC3(CC2)CN(CC(F)F)CC(c2ncc(C(C)C)o2)O3)cc1F (centres unmarked) = > 5000 nM

The compound listed as COCC1CN(c2ncccn2)CC2(CCN(C(=O)c3ccc(OC(C)C)c(C#N)c3)CC2)O1 (centres unmarked) has a reported IC50 of < 2000 nM

Query COc1cc(F)cc(C(=O)N2CCC3(CC2)CN(CC(F)(F)F)CC(c2ccccc2)O3)c1 (centres unmarked) yields IC50 of > 5000 nM

Consider Cc1cc(C(=O)N2CCC3(CC2)CN(CC(F)(F)F)CC(c2ccccc2)O3)ccc1OC1COC1 (centres unmarked) . Its measured IC50 is < 2000 nM

Briefly, IC50 measured for CCC1CN(c2ccccn2)CC2(CCN(C(=O)c3ccc(C(C)(C)O)c(F)c3)CC2)O1 (centres unmarked) : < 2000 nM

Item: CCN(CC)C(=O)c1ccc(C(=O)N2CCC3(CC2)CN(CC(F)(F)F)CC(c2ccccc2)O3)cc1F (centres unmarked) | IC50: < 2000 nM

====

- SYSTEM: human NaV subtype, like NaV 1.7 (Homo sapiens)
- ASSAY EXPLANATION: E-VIPR optical membrane potential assay with electrical stimulation
- Format: cell-based
- APPLIED CONDITIONS: active against one or more sodium channels; assay and NaV subtype not specified for Table 3; read-out: IC50 Binned Activity Data
I'd appreciate it if you could supply IC50 values for the items below.

Readout IC50 for COCCOc1ccc(C(=O)N2CCC3(CC2)CN(c2ncccn2)CC(COC)O3)cc1OC (stereo not shown) , test system human NaV subtype, like NaV 1.7 (Homo sapiens), was > 5000 nM

So the reported IC50 for CCC1CN(c2ncccn2)CC2(CCN(C(=O)c3ccc(C4(O)CCCCC4)cc3)CC2)O1 (stereo not shown) , on human NaV subtype, like NaV 1.7 (Homo sapiens), turned out to be < 2000 nM

Bench note, human NaV subtype, like NaV 1.7 (Homo sapiens): CCC1CN(CC2CC2)CC2(CCN(C(=O)c3ccc(OC(C)C)c(C)c3)CC2)O1 (stereo not shown) , IC50 reads < 2000 nM

Measured IC50 for this entry Cc1cc(C(=O)N2CCC3(CC2)CN(c2ncccn2)CC(COC(F)F)O3)ccc1OC(C)C (stereo not shown) on human NaV subtype, like NaV 1.7 (Homo sapiens): < 2000 nM

Note to self: IC50 of CCC1CN(c2ncccn2)CC2(CCN(C(=O)c3ccc(S(=O)(=O)C(C)C)c(C)c3)CC2)O1 (stereo not shown) with human NaV subtype, like NaV 1.7 (Homo sapiens) was 2000 to 5000 nM

The reported human NaV subtype, like NaV 1.7 (Homo sapiens) IC50 of COCC1CN(c2cccc(C(F)(F)F)c2)CC2(CCN(C(=O)c3ccc(C(C)(C)O)c(F)c3)CC2)O1 (stereo not shown) is < 2000 nM

Reported human NaV subtype, like NaV 1.7 (Homo sapiens) IC50 for item COCC1CN(CC2CC2)CC2(CCN(C(=O)c3ccc(OC(C)C)c(C)c3)CC2)O1 (stereo not shown) was < 2000 nM

Entry CCC1CN(c2ccccn2)CC2(CCN(C(=O)c3ccc(C(C)(C)O)c(C)c3)CC2)O1 (stereo not shown) ; assay system human NaV subtype, like NaV 1.7 (Homo sapiens); IC50 recorded at < 2000 nM

# lookup: COCC1CN(CC2CCOCC2)CC2(CCN(C(=O)c3ccc(OC(C)C)c(C)c3)CC2)O1 (stereo not shown) on human NaV subtype, like NaV 1.7 (Homo sapiens), IC50 = > 5000 nM

The reported human NaV subtype, like NaV 1.7 (Homo sapiens) IC50 of COCC1CN(CC(C)C)CC2(CCN(C(=O)c3ccc(OC(C)C)c(C)c3)CC2)O1 (stereo not shown) is < 2000 nM

Tested system human NaV subtype, like NaV 1.7 (Homo sapiens); IC50 recorded for CCOc1ccc(C(=O)N2CCC3(CC2)CN(CC)CC(c2ccccc2)O3)cc1CO (stereo not shown) was > 5000 nM

The compound COCC1CN(c2ncccn2)CC2(CCN(C(=O)c3ccc(OC(C)C)c(C)n3)CC2)O1 (stereo not shown) on human NaV subtype, like NaV 1.7 (Homo sapiens): IC50 was < 2000 nM

Entry Cc1cc(C(=O)N2CCC3(CC2)CN(Cc2ccccc2)CC(CCO)O3)ccc1OC(C)C (stereo not shown) , human NaV subtype, like NaV 1.7 (Homo sapiens) data, IC50 value: > 5000 nM

Item: CCOCC1CN(CC)CC2(CCN(C(=O)c3ccc(OC(C)C)c(C)c3)CC2)O1 (stereo not shown) | System: human NaV subtype, like NaV 1.7 (Homo sapiens) | IC50: > 5000 nM

Tested on human NaV subtype, like NaV 1.7 (Homo sapiens): Cc1cccc(C2CN(CC(F)F)CC3(CCN(C(=O)c4ccc(C(C)(C)O)c(F)c4)CC3)O2)n1 (stereo not shown) . Observed IC50: > 5000 nM

# IC50 measured on human NaV subtype, like NaV 1.7 (Homo sapiens) for item O=C(c1cccc(F)c1OC(F)F)N1CCC2(CC1)CN(CC(F)(F)F)CC(c1ccccc1)O2 (stereo not shown) = > 5000 nM
